Below, each entry is listed alongside its reported DC50.
Biological target: SMARCA4 (Homo sapiens)
Construct: SMARCA4-HiBiT knock-in Hela monoclonal cell (CS3023226); host or cells: HeLa monoclonal cells with heterozygous HiBiT knock-in at the endogenous SMARCA4 locus
Sequence (P51532 whole entry): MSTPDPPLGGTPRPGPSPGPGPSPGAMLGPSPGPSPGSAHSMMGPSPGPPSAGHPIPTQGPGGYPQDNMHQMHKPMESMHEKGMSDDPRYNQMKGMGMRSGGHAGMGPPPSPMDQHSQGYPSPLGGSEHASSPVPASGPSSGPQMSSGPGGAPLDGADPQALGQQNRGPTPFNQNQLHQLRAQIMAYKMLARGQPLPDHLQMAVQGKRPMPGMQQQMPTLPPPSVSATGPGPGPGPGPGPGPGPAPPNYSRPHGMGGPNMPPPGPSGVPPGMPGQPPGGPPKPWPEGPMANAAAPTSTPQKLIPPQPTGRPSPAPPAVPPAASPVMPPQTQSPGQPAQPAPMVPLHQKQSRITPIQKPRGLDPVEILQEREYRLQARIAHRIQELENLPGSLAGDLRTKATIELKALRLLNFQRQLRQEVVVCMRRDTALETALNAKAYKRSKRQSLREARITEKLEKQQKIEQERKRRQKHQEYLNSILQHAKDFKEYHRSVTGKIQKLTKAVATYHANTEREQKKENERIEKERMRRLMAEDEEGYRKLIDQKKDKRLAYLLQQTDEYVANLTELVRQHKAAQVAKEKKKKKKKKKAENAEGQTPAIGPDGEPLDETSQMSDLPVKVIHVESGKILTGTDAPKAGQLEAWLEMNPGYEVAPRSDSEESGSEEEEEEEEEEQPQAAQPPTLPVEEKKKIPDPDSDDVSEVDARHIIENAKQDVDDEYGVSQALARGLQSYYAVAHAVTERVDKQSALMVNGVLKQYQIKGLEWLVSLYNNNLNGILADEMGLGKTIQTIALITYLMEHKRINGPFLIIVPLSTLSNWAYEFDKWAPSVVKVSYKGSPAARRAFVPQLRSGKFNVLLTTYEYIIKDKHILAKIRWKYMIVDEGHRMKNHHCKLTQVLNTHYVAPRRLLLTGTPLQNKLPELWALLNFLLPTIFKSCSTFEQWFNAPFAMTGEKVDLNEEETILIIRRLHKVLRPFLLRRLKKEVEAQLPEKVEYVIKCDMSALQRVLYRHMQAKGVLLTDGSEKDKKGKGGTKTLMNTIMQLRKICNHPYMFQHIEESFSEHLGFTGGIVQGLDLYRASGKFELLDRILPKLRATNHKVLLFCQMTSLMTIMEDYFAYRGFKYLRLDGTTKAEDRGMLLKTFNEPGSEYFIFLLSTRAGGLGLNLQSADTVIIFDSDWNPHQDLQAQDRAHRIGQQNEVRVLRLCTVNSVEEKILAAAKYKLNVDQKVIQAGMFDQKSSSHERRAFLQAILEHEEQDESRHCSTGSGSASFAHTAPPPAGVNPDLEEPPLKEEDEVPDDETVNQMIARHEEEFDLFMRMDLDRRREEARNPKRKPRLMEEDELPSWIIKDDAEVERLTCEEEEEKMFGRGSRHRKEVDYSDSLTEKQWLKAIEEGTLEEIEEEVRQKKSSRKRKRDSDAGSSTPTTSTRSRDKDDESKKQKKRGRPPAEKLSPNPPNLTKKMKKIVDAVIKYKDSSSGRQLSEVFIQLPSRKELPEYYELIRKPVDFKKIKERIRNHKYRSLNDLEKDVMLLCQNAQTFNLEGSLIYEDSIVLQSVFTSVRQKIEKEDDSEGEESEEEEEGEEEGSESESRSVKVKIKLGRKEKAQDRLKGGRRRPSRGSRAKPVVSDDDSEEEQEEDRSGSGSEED
Test: SMARCA4 HiBiT degradation assay in HeLa cells
Type: cell-based
Settings: 18 hours, highest concentration 10 μM
RESULT TYPE: DC50

| COMPOUND | TARGET ENTITY | EXPERIMENTAL RESULT |
| --- | --- | --- |
| Cc1cc(CN2CCN(c3ccc4c(c3)C(=O)N([C@H]3CCC(=O)NC3=O)C4)CC2)cnc1O[C@H]1CN2c3cc(-c4cccc(F)c4O)nnc3NC[C@]2(C)C1 | SMARCA4 (Homo sapiens) | < 100 nM |
| O=C1CC[C@H](N2Cc3ccc(C4CCN(Cc5ccc(O[C@H]6CN7c8cc(-c9cccc(F)c9O)nnc8NC[C@@]7(C(F)F)C6)nc5)CC4)cc3C2=O)C(=O)N1 | SMARCA4 (Homo sapiens) | > 1000 nM |
| CC[C@@]12CNc3nnc(-c4cccc(F)c4O)cc3N1C[C@H](Oc1cc(C)c(CN3CCC(c4ccc5c(c4)C(=O)N(C4CCC(=O)NC4=O)C5)CC3)cn1)C2 (stereo partly shown) | SMARCA4 (Homo sapiens) | 100 to 1000 nM |
| Cc1cc(CN2CCC(c3ccc4c(c3)C(=O)N([C@H]3CCC(=O)NC3=O)C4)CC2)ncc1O[C@H]1CN2c3cc(-c4cccc(F)c4O)nnc3NC[C@]2(C(F)F)C1 | SMARCA4 (Homo sapiens) | < 100 nM |
| Cc1cccc(-c2cc3c(nn2)NC[C@H]2C[C@@H](Oc4ccc(CN5CCN(c6ccc7c(c6)C(=O)N(C6CCC(=O)NC6=O)C7)CC5)cc4)CN32)c1O (stereo partly shown) | SMARCA4 (Homo sapiens) | < 100 nM |
| O=C1CCC(N2Cc3ccc(N4CCN(Cc5cnc(O[C@H]6CN7c8cc(-c9cccc(F)c9O)nnc8NC[C@]7(C(F)F)C6)cn5)CC4)cc3C2=O)C(=O)N1 (stereo partly shown) | SMARCA4 (Homo sapiens) | > 1000 nM |
| Cc1nc(O[C@@H]2C[C@@H]3CNc4nnc(-c5cc(F)cc(F)c5O)cc4N3C2)ccc1CN1CCN(c2ccc3c(c2)C(=O)N([C@H]2CCC(=O)NC2=O)C3)CC1 | SMARCA4 (Homo sapiens) | < 100 nM |
| Cc1c(CN2CCN(c3ccc4c(c3)C(=O)N([C@H]3CCC(=O)NC3=O)C4)CC2)cnc(O[C@H]2CN3c4cc(-c5cccc(F)c5O)nnc4NC[C@@]3(C(F)F)C2)c1C | SMARCA4 (Homo sapiens) | 100 to 1000 nM |
| CCc1cc(CN2CCN(c3ccc4c(c3)C(=O)N([C@H]3CCC(=O)NC3=O)C4)CC2)cnc1O[C@H]1CN2c3cc(-c4cccc(F)c4O)nnc3NC[C@]2(C(F)F)C1 | SMARCA4 (Homo sapiens) | < 100 nM |
| CC[C@@]12CNc3nnc(-c4cc(F)cc(F)c4O)cc3N1C[C@H](Oc1ccc(CN3CCN(c4ccc5c(c4)C(=O)N(C4CCC(=O)NC4=O)C5)CC3)cn1)C2 (stereo partly shown) | SMARCA4 (Homo sapiens) | < 100 nM |
| O=C1CCC(N2Cc3ccc(N4CCC(Cn5cc(O[C@@H]6C[C@@H]7CNc8nnc(-c9cc(F)cc(F)c9O)cc8N7C6)cn5)CC4)cc3C2=O)C(=O)N1 (stereo partly shown) | SMARCA4 (Homo sapiens) | > 1000 nM |
| O=C1CCC(N2Cc3ccc(N4CCN(Cc5ccc(O[C@@H]6C[C@@H]7CNc8nnc(-c9cc(F)cc(Cl)c9O)cc8N7C6)cc5)CC4)cc3C2=O)C(=O)N1 (stereo partly shown) | SMARCA4 (Homo sapiens) | < 100 nM |
| CC[C@]12CNc3nnc(-c4cccc(F)c4O)cc3N1C[C@H](Oc1cnc(CN3CCC(c4ccc5c(c4)C(=O)N([C@H]4CCC(=O)NC4=O)C5)CC3)cn1)C2 | SMARCA4 (Homo sapiens) | < 100 nM |
| Cc1cc(O[C@@H]2C[C@H]3CNc4nnc(-c5cccc(F)c5O)cc4N3C2)ccc1CN1CCC(c2ccc3c(c2)C(=O)N(C2CCC(=O)NC2=O)C3)CC1 (stereo partly shown) | SMARCA4 (Homo sapiens) | < 100 nM |
| CC[C@]12CNc3nnc(-c4cccc(C)c4O)cc3N1C[C@H](Oc1nc(C)c(CN3CCC(c4ccc5c(c4)C(=O)N([C@H]4CCC(=O)NC4=O)C5)CC3)c(C)n1)C2 | SMARCA4 (Homo sapiens) | 100 to 1000 nM |
| COc1cc(O[C@@H]2C[C@@H]3CNc4nnc(-c5cc(F)cc(F)c5O)cc4N3C2)ccc1CN1CCN(c2ccc3c(c2)C(=O)N(C2CCC(=O)NC2=O)C3)CC1 (stereo partly shown) | SMARCA4 (Homo sapiens) | < 100 nM |
